Where these numbers come from: patent US9868748B2

# target_or_system: recombinant RORγ Ligand Binding Domain (LBD) protein (Homo sapiens (Human), UniProt P51449)
# assay_info: Radio-Ligand RORγ Binding Assay (Assay 1)
# run_conditions: competition with 25-hydroxy [26,27-3H]-cholesterol, SPA; Table 9; read-out: RORγ Binding Ki Range*
pKi: −log10 of the molar value.
measurement_name: pKi

{"columns": ["record_smiles", "pKi"],
 "data": [
  ["CCS(=O)(=O)c1ccc(CNC(=O)c2nc3c(s2)CN(Cc2ccc4nonc4c2)[C@H]3C(C)C)nc1", "> 7.00"],
  ["CCS(=O)(=O)c1ccc(CC(=O)Nc2nc3c(s2)CN(Cc2ccc(C#N)cc2C(F)(F)F)[C@H]3C(C)C)cc1", "> 7.00"],
  ["CCS(=O)(=O)c1ccc(CNC(=O)c2nc3c(s2)CN(Cc2ccc(C(F)F)cc2)[C@H]3C(C)C)nc1", "> 7.00"],
  ["CCS(=O)(=O)c1ccc(CC(=O)Nc2nc3c(s2)CN([C@@H](C)Cc2ccccc2C(F)(F)F)[C@@H]3C(C)C)cc1", "> 7.00"],
  ["CCS(=O)(=O)c1ccc(CNC(=O)c2nc3c(s2)CN(Cc2cnc(C(F)(F)F)nc2)[C@H]3C(C)C)cc1", "6.00 to 7.00"]
]}

query: Request the reported pKi associated with CC(C)[C@H]1c2nc(NC(=O)Cc3ccc(S(C)(=O)=O)cc3)sc2CN1Cc1cnc(C(F)(F)F)nc1
result: > 7.00

query: Give the measured pKi of COC(=O)c1coc(CN2Cc3sc(NC(=O)Cc4ccc(S(C)(=O)=O)cc4)nc3[C@H]2C(C)C)n1 .
result: < 6.00

query: Returns the measured pKi for the input compound. Input: CCS(=O)(=O)c1ccc(CC(=O)Nc2nc3c(s2)CN(C[C@H]2CC[C@H](O)CC2)[C@H]3C(C)C)cc1
result: > 7.00

* * *

# target_or_system: full-length RORγt in Jurkat cells (Homo sapiens (Human))
# assay_info: RORγt 5xRORE Assay in Jurkat Cells (Assay 2)
# Type: cell-based
# run_conditions: Nanoluc luciferase reporter, 16-18 hrs, Table 9, read-out: RORγt5X IC50 Range*
Entries and their IC50 values follow.

{"columns": ["molecule", "IC50"],
 "data": [
  ["CCOC(=O)c1cnc(N2Cc3sc(NC(=O)Cc4ccc(S(=O)(=O)CC)cc4)nc3[C@@H]2C(C)C)nc1C(F)(F)F", "> 1000 nM"],
  ["CCS(=O)(=O)c1ccc(CC(=O)Nc2nc3c(s2)CN(C[C@H]2CC[C@H](O)CC2)[C@H]3C(C)C)cc1", "< 100 nM"],
  ["CCS(=O)(=O)c1ccc(CC(=O)Nc2nc3c(s2)CN(C[C@@H]2CC[C@H](C(F)(F)F)OC2)[C@H]3C(C)C)cc1 (relative stereo)", "> 1000 nM"],
  ["CC(C)[C@H]1c2nc(C(=O)NCc3ccc(S(C)(=O)=O)cc3)sc2CN1Cc1ccc(Cl)cn1 [drawing 378]", "100 to 1000 nM"],
  ["CCS(=O)(=O)c1ccc(CNC(=O)c2nc3c(s2)CN(C[C@H]2CC[C@@H](C(F)(F)F)CC2)[C@H]3C(C)C)cc1 (relative stereo)", "> 1000 nM"]
]}

query: Please provide the recorded IC50 for CC[C@@H]1c2nc(NC(=O)Cc3ccc(S(C)(=O)=O)cc3)sc2CN1Cc1cccc(C(F)(F)F)c1 , tested on full-length RORγt in Jurkat cells (Homo sapiens (Human)).
result: > 1000 nM

query: Record lookup: for full-length RORγt in Jurkat cells (Homo sapiens (Human)), what IC50 belongs to CCS(=O)(=O)c1ccc(CC(=O)Nc2nc3c(s2)CN(C[C@@H]2CC[C@@H](C(F)(F)F)N(C4CC4)C2)[C@H]3C(C)C)cc1 (single isomer, unassigned) ?
result: > 1000 nM

query: Can you look up IC50 on full-length RORγt in Jurkat cells (Homo sapiens (Human)) for CC(C)[C@H]1c2nc(NC(=O)Cc3ccc(S(C)(=O)=O)cc3)sc2CN1Cc1ccc(-c2nnn[nH]2)cc1 ?
result: > 1000 nM

query: What reported IC50 corresponds to CCS(=O)(=O)c1ccc(CNC(=O)c2nc3c(s2)CN(CC2CN(CC(F)(F)F)CCO2)[C@H]3C(C)C)cc1 (stereo partly drawn) on full-length RORγt in Jurkat cells (Homo sapiens (Human))?
result: > 1000 nM

* * *

# target_or_system: recombinant RORγ Ligand Binding Domain (LBD) protein (Homo sapiens (Human))
# assay_info: Radio-Ligand RORγ Binding Assay (Assay 1)
# run_conditions: competition with 25-hydroxy [26,27-3H]-cholesterol, SPA; Table 9; read-out: RORγ Binding Ki Range*
pKi: −log10 of the molar value.
Recorded pKi by entry

// worked examples, pKi included
{"columns": ["molecule", "pKi"],
 "data": [
  ["CCS(=O)(=O)c1ccc(CC(=O)Nc2nc3c(s2)CN(Cc2ccc(Br)cc2)[C@H]3C(C)C)cc1", "> 7.00"],
  ["CCS(=O)(=O)c1ccc(CNC(=O)c2nc3c(s2)CN(c2ncc(CO)c(C(F)(F)F)n2)[C@H]3C(C)C)cc1", "< 6.00"],
  ["CCS(=O)(=O)c1ccc(CC(=O)Nc2nc3c(s2)CN(Cc2ccc(C(F)(F)F)nc2)[C@@H]3C(C)C)cc1", "6.00 to 7.00"],
  ["CCS(=O)(=O)c1ccc(CC(=O)Nc2nc3c(s2)CN(Cc2cc(C(F)(F)F)cc(C(F)(F)F)c2)[C@@H]3C(C)C)cc1", "> 7.00"],
  ["Cc1cc(C(F)(F)F)nc(N2Cc3sc(Cc4ccc(-c5nn[nH]n5)cc4C)nc3[C@H]2C(C)C)n1", "6.00 to 7.00"]
]}

query: Query: pKi; subject: CCS(=O)(=O)c1ccc(CC(=O)Nc2nc3c(s2)CN(Cc2ccc(C(F)(F)F)cc2)[C@@H]3C(C)C)cc1
result: > 7.00

query: Look up pKi: COC(=O)c1cnc(N2Cc3sc(NC(=O)Cc4ccc(S(C)(=O)=O)cc4)nc3[C@@H]2C(C)C)nc1
result: < 6.00

query: Query (molecule): CCS(=O)(=O)c1ccc(CC(=O)Nc2nc3c(s2)CN(C[C@@H]2CCCOC2)[C@H]3C(C)C)cc1 (single isomer, unassigned) ; field requested: pKi
result: > 7.00

query: Would you mind telling me what pKi value was observed for CCS(=O)(=O)c1ccc(CC(=O)Nc2nc3c(s2)CN(Cc2ccc(F)cc2)[C@@H]3C(C)C)cc1 ?
result: > 7.00

query: Return reported pKi; argument: CCS(=O)(=O)c1ccc(CC(=O)Nc2nc3c(s2)CN(C(C)c2ccc(F)cc2)[C@@H]3C(C)C)cc1 (stereo partly drawn)
result: > 7.00

query: # query: pKi of entry CC(C)[C@@H]1c2nc(NC(=O)Cc3ccc(S(C)(=O)=O)cc3)sc2CN1Cc1ccc(OC(F)F)cc1
result: 6.00 to 7.00

query: Need pKi, item CCS(=O)(=O)c1ccc(CC(=O)Nc2nc3c(s2)CN(Cc2cccc(S(C)(=O)=O)c2)[C@@H]3C(C)C)cc1
result: 6.00 to 7.00

* * *

# target_or_system: full-length RORγt in Jurkat cells (Homo sapiens (Human), UniProt P51449)
# Sequence (P51449 other isoform, or with tags, fused parts or gaps): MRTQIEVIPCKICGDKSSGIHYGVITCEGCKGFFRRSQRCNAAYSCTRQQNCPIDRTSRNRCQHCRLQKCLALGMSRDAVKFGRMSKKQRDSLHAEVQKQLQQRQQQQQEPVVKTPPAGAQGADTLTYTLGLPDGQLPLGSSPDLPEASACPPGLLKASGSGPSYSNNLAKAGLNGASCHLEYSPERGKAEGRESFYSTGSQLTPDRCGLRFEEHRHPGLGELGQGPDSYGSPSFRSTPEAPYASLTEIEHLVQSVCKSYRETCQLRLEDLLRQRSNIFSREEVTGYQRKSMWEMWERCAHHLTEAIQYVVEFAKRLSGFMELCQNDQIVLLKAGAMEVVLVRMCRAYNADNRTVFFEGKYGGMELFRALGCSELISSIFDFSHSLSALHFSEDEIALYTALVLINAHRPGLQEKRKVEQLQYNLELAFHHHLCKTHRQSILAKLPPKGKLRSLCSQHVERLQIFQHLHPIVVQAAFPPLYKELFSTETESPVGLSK
# assay_info: RORγt 5xRORE Assay in Jurkat Cells (Assay 2)
# Format: cell-based
# run_conditions: Nanoluc luciferase reporter, 16-18 hrs, Table 9, read-out: RORγt5X IC50 Range*
pIC50: −log10 of the molar value.
measurement_name: pIC50

Answered cases to consult:
{"columns": ["molecule", "pIC50"],
 "data": [
  ["CCS(=O)(=O)c1ccc(CC(=O)Nc2nc3c(s2)CN([C@H](C)Cc2ccccc2)[C@@H]3C(C)C)cc1", "< 6.00"],
  ["CCS(=O)(=O)c1ccc(CC(=O)Sc2nc3c(s2)CN(Cc2ccc(Cl)cc2)C3(C)C)cc1", "6.00 to 7.00"],
  ["CC(C)[C@@H]1c2nc(NC(=O)Cc3ccc(S(C)(=O)=O)cc3)sc2CN1[C@H](C)c1ccc(OC(F)(F)F)cc1 (single isomer, unassigned)", "< 6.00"],
  ["CCS(=O)(=O)c1ccc(CC(=O)Nc2nc3c(s2)CN([C@H](C)Cc2ccccc2)[C@H]3C(C)C)cc1", "< 6.00"]
]}

query: Which pIC50 is reported for this molecule? CC(C)[C@H]1c2nc(NC(=O)Cc3ccc(S(C)(=O)=O)cc3)sc2CN1Cc1ccc(F)cc1
result: < 6.00

query: May I ask what pIC50 has been recorded for CCOc1ccc(CN2Cc3sc(NC(=O)Cc4ccc(S(=O)(=O)CC)cc4)nc3[C@H]2CC)cc1 ?
result: 6.00 to 7.00

query: I am curious: what pIC50 value has been reported for CC(C)[C@H]1c2nc(NC(=O)Cc3ccc(-c4nnnn4C)cc3)sc2CN1Cc1ccc(Cl)cc1 ?
result: < 6.00
